Items are presented alongside their recorded inhibition in vivo at 20 µmol/kg.
Tested on: Histamine-induced anaphylactoid reactions
Assay: Inhibition of anaphylactoid cutaneous reaction induced by histamine
Assay type: in vivo, rat (Sprague-Dawley)
Details: Rattus norvegicus, 1 h; rats, 2 × 10^-5 mol/kg p.o., one hour before challenge; histamine intradermal
Procedure: 1. Determination of the inhibition of passive cutaneous anaphylaxis (P.C.A.) and of the anaphylactoid cutaneous reaction induced by histamine. […] The oedematous anaphylactic (P.C.A.) and anaphylactoid (histamine-induced) reactions caused by the challenging i.v. ovalbumin injection, which are manifested by oedema formation, swelling and exudation of blue dye, were evaluated 30 minutes after challenge by the i.v. ovalbumin injection. […]

A selection of reference data follows.
> print(dat)
                                   molecule  recorded.value
1  Cc1ccnc(N2CCN(CCc3c(C)n4c5c(cccc35)[S+]([O-])CC4)CC2)c1 (stereo not shown) [Example 28a]             90%
2  Cc1ccnc(N2CCN(CCc3c(C)n4c5c(cc(CC(C)C)cc35)CCC4)CC2)c1             90%
3  COc1ccc(C2CCc3cc(OC)cc4c(CCN5CCN(c6cc(C)ccn6)CC5)c(C)n2c34)cc1 (stereo not shown)             95%
4  Cc1cc2c3c(c1)c(CCN1CCC(C(=O)c4ccc(F)cc4)CC1)c(C)n3CCC2             50%
5  Cc1ccc(N2CCN(CCc3c(C)n4c5c(cccc35)CCC4)CC2)nc1             45%

Next item in the queue.
IN: Entry CCCCC1CCc2cc(OC)cc3c(CCN4CCN(c5cc(C)ccn5)CC4)c(C)n1c23 (stereo not shown) has what inhibition in vivo at 20 µmol/kg?
OUT: 95%

----------
Target: cyclooxygenase (Mus musculus)
Construct: A cell suspension containing peritoneal cells of male mice 8-10 weeks old was obtained; endogenous in cells; host or cells: mouse peritoneal macrophages (male mice 8-10 weeks old), zymosan-stimulated
Sequence (P22437 27-602): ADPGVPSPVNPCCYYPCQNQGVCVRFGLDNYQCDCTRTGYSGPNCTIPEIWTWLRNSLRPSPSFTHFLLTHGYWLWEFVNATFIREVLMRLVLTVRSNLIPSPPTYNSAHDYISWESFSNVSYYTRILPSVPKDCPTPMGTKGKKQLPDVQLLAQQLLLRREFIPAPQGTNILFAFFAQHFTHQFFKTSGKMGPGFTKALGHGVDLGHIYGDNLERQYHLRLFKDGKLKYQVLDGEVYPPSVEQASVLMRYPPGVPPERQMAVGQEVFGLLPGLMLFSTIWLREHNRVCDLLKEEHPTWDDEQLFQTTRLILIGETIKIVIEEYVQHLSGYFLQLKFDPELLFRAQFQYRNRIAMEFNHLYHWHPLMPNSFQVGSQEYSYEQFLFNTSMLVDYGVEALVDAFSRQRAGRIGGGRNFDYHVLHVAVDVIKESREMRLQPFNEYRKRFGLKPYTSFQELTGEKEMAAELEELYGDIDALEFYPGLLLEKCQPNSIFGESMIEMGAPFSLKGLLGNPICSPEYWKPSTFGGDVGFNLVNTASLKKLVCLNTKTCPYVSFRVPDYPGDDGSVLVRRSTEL
Test: Cyclooxygenase inhibition: release of 6-keto-PGF1 α from zymosan-stimulated mouse peritoneal macrophage cells
Assay type: cell-based
Conditions: 10^-5 mol/l, read-out: In vitro % inhibition effect on the release of 6-keto-PGF1 α
Items are presented alongside their recorded inhibition at 10 µM.
Write the answer as a number in %, unit excluded.

IN: Entry "Cc1c(CCN2CCN(c3ccccn3)CC2)c2cccc3c2n1CCC3" has what inhibition at 10 µM?
OUT: 32

IN: Entry "CNc1cc2c3c(c1)c(CCN1CCN(c4cc(C)ccn4)CC1)c(C)n3CCC2" has what inhibition at 10 µM?
OUT: 12

IN: Entry Cc1ccnc(N2CCN(CCc3c(C)n4c5c(c(C(O)C(C)C)ccc35)SCC4)CC2)c1 (stereo not drawn) has what inhibition at 10 µM?
OUT: 32

IN: Entry "Cc1c(CCN2CCN(c3ccc(Br)cn3)CC2)c2cccc3c2n1CCC3" has what inhibition at 10 µM?
OUT: 57

IN: Entry "Cc1cc2c3c(c1)c(CCN1CCC(C(=O)c4ccc(F)cc4)CC1)c(C)n3CCC2" has what inhibition at 10 µM?
OUT: 41

IN: Entry COc1ccc(C2CCc3cc(OC)cc4c(CCN5CCN(c6cc(C)ccn6)CC5)c(C)n2c34)cc1 (stereo not drawn) has what inhibition at 10 µM?
OUT: 52

IN: Entry CCCCC1CCc2cccc3c(CCN4CCN(c5cc(C)ccn5)CC4)c(C)n1c23 (stereo not drawn) has what inhibition at 10 µM?
OUT: 29

IN: Entry "Cc1ccnc(N2CCN(CCc3c(C)n4c5c(cc(C(=O)c6ccccc6)cc35)CCC4)CC2)c1" has what inhibition at 10 µM?
OUT: 72

IN: Entry "Cc1ccnc(N2CCN(CCc3c(C)n4c5c(cc(C(=O)c6ccc(Cl)cc6)cc35)CCC4)CC2)c1" has what inhibition at 10 µM?
OUT: 58

IN: Entry "CC(=O)c1cc2c3c(c1)c(CCN1CCN(c4cc(C)ccn4)CC1)c(C)n3CCC2" has what inhibition at 10 µM?
OUT: 36

----------
Target: 5-lipoxygenase (Mus musculus, UniProt P48999)
Construct: A cell suspension containing peritoneal cells of male mice 8-10 weeks old was obtained; endogenous in cells; host or cells: mouse peritoneal macrophages (male mice 8-10 weeks old), zymosan-stimulated
Sequence (P48999 whole entry): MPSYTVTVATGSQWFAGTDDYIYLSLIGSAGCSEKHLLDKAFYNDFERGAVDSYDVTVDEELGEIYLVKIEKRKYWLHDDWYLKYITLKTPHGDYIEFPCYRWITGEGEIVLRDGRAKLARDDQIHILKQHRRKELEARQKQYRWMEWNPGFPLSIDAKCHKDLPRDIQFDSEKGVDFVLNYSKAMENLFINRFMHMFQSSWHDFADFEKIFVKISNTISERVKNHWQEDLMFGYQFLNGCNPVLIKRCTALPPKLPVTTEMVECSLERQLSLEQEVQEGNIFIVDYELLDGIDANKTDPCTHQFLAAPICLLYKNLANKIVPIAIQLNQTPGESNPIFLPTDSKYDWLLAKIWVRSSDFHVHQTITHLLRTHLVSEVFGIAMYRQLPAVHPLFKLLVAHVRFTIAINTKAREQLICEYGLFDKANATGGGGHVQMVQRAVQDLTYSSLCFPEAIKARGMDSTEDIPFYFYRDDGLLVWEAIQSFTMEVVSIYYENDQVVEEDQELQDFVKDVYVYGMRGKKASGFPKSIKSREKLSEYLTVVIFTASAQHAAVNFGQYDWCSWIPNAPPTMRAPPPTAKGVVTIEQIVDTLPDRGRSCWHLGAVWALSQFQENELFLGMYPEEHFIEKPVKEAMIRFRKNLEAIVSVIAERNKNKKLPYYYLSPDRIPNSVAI
Test: 5-lipoxygenase inhibition: release of LTC4 from zymosan-stimulated mouse peritoneal macrophage cells
Type: cell-based
Conditions: 10^-5 mol/l, read-out: In vitro % inhibition effect on the release of LTC4
Reported Property: inhibition at 10 µM (%)
Write the answer as a number in %, unit excluded.

> print(dat)
                                   compound  units  recorded.value
1  Cc1ccnc(N2CCN(CCc3c(C)n4c5c(cc(CC6CCCCC6)cc35)CCC4)CC2)c1      %              20

IN: Entry "Cc1ccnc(N2CCN(CCc3c(C)n4c5c(cc(C(=O)C6CCCCC6)cc35)CCC4)CC2)c1" has what inhibition at 10 µM?
OUT: 34

IN: Entry CCCCC1CCc2cc(O)cc3c(CCN4CCN(c5cc(C)ccn5)CC4)c(C)n1c23 (stereo not drawn) has what inhibition at 10 µM?
OUT: 75

IN: Entry "Cc1ccnc(N2CCN(CCc3c(C)n4c5c(cc(N(C)C)cc35)CCC4)CC2)c1" has what inhibition at 10 µM?
OUT: 29

IN: Entry "CC(=O)c1cc2c3c(c1)c(CCN1CCN(c4cc(C)ccn4)CC1)c(C)n3CCC2" has what inhibition at 10 µM?
OUT: 66

IN: Entry "Cc1cc2c3c(c1)c(CCN1CCC(C(=O)c4ccc(F)cc4)CC1)c(C)n3CCC2" has what inhibition at 10 µM?
OUT: 45

IN: Entry COc1ccc(C2CCc3cccc4c(CCN5CCN(c6cc(C)ccn6)CC5)c(C)n2c34)cc1 (stereo not drawn) has what inhibition at 10 µM?
OUT: 80

IN: Entry "Cc1ccnc(N2CCN(CCc3c(C)n4c5c(cc(N)cc35)CCC4)CC2)c1" has what inhibition at 10 µM?
OUT: 0

IN: Entry "Cc1ccnc(N2CCN(CCc3c(C)n4c5c(cc(Br)cc35)CCC4)CC2)c1" has what inhibition at 10 µM?
OUT: 62

----------
Target: histamine (H1) receptor (Cavia porcellus)
Construct: isolated smooth muscle of the guinea-pig ileum; from tissue; host or cells: isolated ileum segments of Dunkin Hartley guinea-pigs
Sequence (P31389 whole entry): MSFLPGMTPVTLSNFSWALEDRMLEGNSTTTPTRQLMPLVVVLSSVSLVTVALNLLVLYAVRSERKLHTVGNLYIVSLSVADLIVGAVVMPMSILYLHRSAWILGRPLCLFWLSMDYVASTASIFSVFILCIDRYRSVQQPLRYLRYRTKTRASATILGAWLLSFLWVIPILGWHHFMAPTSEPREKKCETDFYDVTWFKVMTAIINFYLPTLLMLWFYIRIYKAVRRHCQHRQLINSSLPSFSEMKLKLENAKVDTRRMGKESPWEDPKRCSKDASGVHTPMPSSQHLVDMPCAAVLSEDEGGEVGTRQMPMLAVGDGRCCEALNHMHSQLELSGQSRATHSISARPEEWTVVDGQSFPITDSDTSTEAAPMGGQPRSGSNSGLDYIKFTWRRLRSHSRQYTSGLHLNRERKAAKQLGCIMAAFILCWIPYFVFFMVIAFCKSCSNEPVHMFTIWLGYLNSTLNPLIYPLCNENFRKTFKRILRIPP
Experiment: Antihistamine (H1) effect: inhibition of histamine-induced contractions of isolated guinea-pig ileum in vitro
Type: cell-based, guinea-pig (Dunkin Hartley)
Conditions: histamine 5 × 10^-6 mol/l, test substance 10^-6 mol/l, after 10 min. (after washing); read-out: in vitro (H1) receptor antagonism % inhibitory effect on histamine-induced contractions of the Ileum, after 10 min.
Items are presented alongside their recorded inhibition at 1 µM.
Write the answer as a number in %, unit excluded.

> print(dat)
                                   compound  recorded.value
1  CCCCC1CCc2cc(OC)cc3c(CCN4CCN(c5cc(C)ccn5)CC4)c(C)n1c23 (stereo not shown)              67

IN: Could you share what inhibition at 1 µM was measured for "Cc1ccc(N2CCN(CCc3c(C)n4c5c(cccc35)CCC4)CC2)nc1" , tested on histamine (H1) receptor (Cavia porcellus)?
OUT: 54

IN: Could you share what inhibition at 1 µM was measured for "Cc1ccnc(N2CCN(CCc3c(C)n4c5c(cccc35)SCC4)CC2)c1" , tested on histamine (H1) receptor (Cavia porcellus)?
OUT: 84

IN: Could you share what inhibition at 1 µM was measured for "Cc1ccnc(N2CCN(CCc3c(C)n4c5c(cc(C(=O)C6CCCCC6)cc35)CCC4)CC2)c1" , tested on histamine (H1) receptor (Cavia porcellus)?
OUT: 52

----------
Test system: Histamine-induced anaphylactoid reactions
Experiment: Inhibition of anaphylactoid cutaneous reaction induced by histamine
Type: in vivo, rat (Sprague-Dawley)
Settings: Rattus norvegicus, 1 h; rats, 2 × 10^-5 mol/kg p.o., one hour before challenge; histamine intradermal
Classify as follows. Reported inhibition in vivo at 20 µmol/kg greater than or equal to 60%: t. Reported inhibition in vivo at 20 µmol/kg below: f.

Examples with answers:
> print(dat)
                                   compound  class.assignment
1  Cc1ccnc(N2CCN(CCc3c(-c4ccc(OCCCCO)cc4)n4c5c(cccc35)CCC4)CC2)c1                 f
2  COc1ccc(-c2c(CCN3CCN(c4cc(C)ccn4)CC3)c3cccc4c3n2CCC4)cc1                 f

For the next question, use this compound.
IN: # bool: inhibition in vivo at 20 µmol/kg of Cc1ccnc(N2CCN(CCc3c(C)n4c5c(cccc35)CCC4CO)CC2)c1 (stereo not shown) >= 60%
OUT: t

----------
Molecular target: cyclooxygenase (Mus musculus)
Construct: A cell suspension containing peritoneal cells of male mice 8-10 weeks old was obtained; endogenous in cells; host or cells: mouse peritoneal macrophages (male mice 8-10 weeks old), zymosan-stimulated
Experiment: Cyclooxygenase inhibition: release of 6-keto-PGF1 α from zymosan-stimulated mouse peritoneal macrophage cells
Format: cell-based
Details: 10^-5 mol/l, read-out: In vitro % inhibition effect on the release of 6-keto-PGF1 α
Classify as follows. Reported inhibition at 10 µM greater than or equal to 50%: True. Reported inhibition at 10 µM below: False.

Examples with answers:
> print(dat)
                                   molecule  class.assignment
1  CC(C)=Cc1cc2c3c(c1)c(CCN1CCN(c4cc(C)ccn4)CC1)c(C)n3CCC2              True
2  Cc1ccnc(N2CCN(CCc3c(C)n4c5c(ccc(C(=O)C(C)C)c35)SCC4)CC2)c1              True
3  Cc1ccnc(N2CCN(CCc3c(-c4ccc(O)cc4)n4c5c(cccc35)CCC4)CC2)c1              True
4  Cc1ccnc(N2CCN(CCc3c(C)n4c5c(cccc35)CCC4c3ccc(O)cc3)CC2)c1 (centres unmarked)              True
5  Cc1ccnc(N2CCN(CCc3c(C)n4c5c(cccc35)CCC4c3ccccc3)CC2)c1 (centres unmarked)             False
6  Cc1ccnc(N2CCN(CCc3c(C)n4c5c(cc(Br)cc35)CCC4)CC2)c1             False
7  C=CCCC1CCc2cccc3c(CCN4CCN(c5cc(C)ccn5)CC4)c(C)n1c23 (centres unmarked)              True
8  Cc1ccnc(N2CCN(CCc3c(C)n4c5c(c(Cl)cc(Cl)c35)OCC4)CC2)c1              True

IN: # bool: inhibition at 10 µM of "Cc1ccnc(N2CCN(CCc3c(C)n4c5c(cc(C(=O)C(C)C)cc35)CCC4)CC2)c1" >= 50%
OUT: False

IN: # bool: inhibition at 10 µM of CCc1c(C(O)CN2CCN(c3cc(C)ccn3)CC2)c2cccc3c2n1CCC3 (centres unmarked) >= 50%
OUT: False
